Experiment summary: viability profiling in RPMI8226 myeloma cells – cell-based, resazurin fluorescence, basal, 24 h, PK04 Diversity Set, profiling panel (AID 1180);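 note: RPMI8826 multiple myeloma cell line at 5000 cells per well; test concentration not given here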
Conditions: higher = more signal
Experimental endpoint: z-score
Lab note: jot down the number only; don't add units.

O=C1C2C=CC(C(O)C=Cc3ccc([N+](=O)[O-])cc3)N(Nc3ccccc3F)C2C(=O)N1c1ccccc1 (stereo not given) ... -0.381
C=CCC(OC(C)=O)[C@@H]1[C@@H](N(Cc2ccc(-c3ccccc3)cc2)C(=O)Cc2ccc(F)cc2)c2cc(OCCCO)ccc2N1C(=O)c1ccc2ccccc2c1 (stereo not given in full) ... -0.112
C=C(C(=O)CC[C@H](OC(C)=O)c1ccccc1OCCO)C(C)C ... -1.62
[N-]=[N+]=NCc1ccccc1C[C@@]1(C(=O)NCC(O)CO)N=C(c2ccc(OCCCO)cc2)O[C@@H]1c1ccccc1 (stereo not given in full) ... -0.645
O=C1O[C@H](c2ccccc2)[C@H](c2ccccc2)N2[C@H]1[C@@H](C(=O)NC[C@H](O)c1ccccc1)[C@]1(C(=O)Nc3ccc(C#CC4=CCCCC4)cc31)[C@H]2c1ccccc1OCCO ... -6.5

Data point: C=C(C)[C@@H]1CC=C(C(O)C2C=CC3C(=O)NC(=O)C3N2Nc2ccc(Cl)cc2Cl)CC1 (stereo not given in full) ; z-score = -2.54

z-score for Cc1ccc(S(=O)(=O)N2C[C@@H](C(=O)O)[C@H](Sc3ccccc3)C[C@H]2c2ccccc2)cc1 is -0.911

----------
Experiment summary: viability profiling in RPMI8226 myeloma cells – cell-based, resazurin fluorescence, basal, 24 h, PK04 Diversity Set, profiling panel (AID 1180);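 note: RPMI8826 multiple myeloma cell line at 5000 cells per well; test concentration not given here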
Conditions: higher = more signal
Reported z-score is given for each of the following compounds.

The reported z-score of the compound O=C(CS)NCCCCCNC(=O)[C@@H]1C[C@@H]2C(=O)NCC(=O)N2[C@@H]1c1cccc(OCCO)c1 was 0.847

// field: z-score; key: CCN(CC)c1ccc(N2CC=CC34O[C@@H]5/C=C\CCC(C)OC(=O)C5[C@H]3C(=O)N(CCCCCO)[C@@H]4C2=O)cc1 (stereo partly specified) ; value = 0.802

Briefly, z-score measured for COC(=O)[C@@]1(Cc2ccc(OC)cc2)[C@H]2c3cc(C(=O)N4CCCC4)n(Cc4nc5ccccc5[nH]4)c3C[C@H]2CN1C(=O)c1ccccc1 : -1.2

// recorded z-score for O=C1C2C=CC(C(O)c3ccc(F)cc3)N(Nc3ccc([N+](=O)[O-])cc3)C2C(=O)N1c1ccccc1 (stereo unspecified) : -0.152

Lookup result for COc1ccc([Si](C)(C)[C@@H]2[C@@H](CCn3cc(CCO)nn3)O[C@]3(C(=O)N(Cc4cccc(N5C(=O)c6cccc7cccc5c67)c4)c4ccccc43)[C@H]2C)cc1 ; measured z-score: -6.09

Just so you know, measured z-score for C=CCNC(=O)[C@H]1[C@@H]2C(=O)O[C@@H](c3ccccc3)[C@@H](c3ccccc3)N2[C@@H](c2ccc(OCCO)cc2)[C@]12C(=O)Nc1ccc(C#CCC(C(=O)OC)C(=O)OC)cc12 came out at -2.64

----------
Experiment summary: JC-1 mitochondrial potential readout, lung cancer cells – cell-based, A549, JC-1 fluorescence, basal, 24 h, 100 nL, profiling panel (AID 1138);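 note: A549 lung adenocarcinoma cells under basal conditions with no added stimulus; test concentration not given here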
Conditions: higher = more signal
Below: a set of entries, each annotated with reported z-score.
Reply briefly: the number, and no unit.

COC(=O)C(CC#Cc1ccc2c(c1)[C@]1(C(=O)N2)[C@H](c2ccccc2OCCO)N2[C@H](c3ccccc3)[C@H](c3ccccc3)OC(=O)[C@H]2[C@@H]1C(=O)O)C(=O)OC ... 0.621
CCCCCN1CC=CC23O[C@@H]4C=CCOC(=O)[C@@H]4[C@H]2C(=O)N(C(C)CO)[C@@H]3C1=O (some centres not stated) ... -0.197
O=C(NC1CC1)[C@@H]1c2ccccc2C(=O)N(Cc2cc(F)cc(C(F)(F)F)c2)[C@H]1c1ccc(CO)cc1 ... 0.739
C=C(C)[C@@H]1CC=C(C(O)C2C=CC3C(=O)NC(=O)C3N2Nc2ccc(Cl)cc2Cl)CC1 (some centres not stated) ... -1.25

Consider CC(=CC1CCCCC1)[C@@H](NC(=O)c1cccnc1)c1ccc(-c2ccccc2)cc1 . Its measured z-score is -0.637

Per the records, this compound ( C=CC[C@@]1(C(=O)N2CCCCC2)N=C(c2ccc(OCCCO)cc2)O[C@@H]1c1ccccc1N=[N+]=[N-] ) has z-score equal to -0.35

Measured z-score of NC(=O)NCC#Cc1ccc2c(c1)[C@]1(C(=O)N2)[C@H](C(=O)O)[C@H]2C(=O)O[C@H](c3ccccc3)[C@H](c3ccccc3)N2[C@@H]1c1ccc(O)cc1 : -1.01
